Experiment: soluble on expression in E. coli; label from the status in PepcDB or PDB records
measurement-type: soluble on expression in E. coli

| residue-codes | observed-measurement |
| --- | --- |
| MSLITCSKCSRRAVIFQRHANRHLCKRHFIEDFERRVKLAVKKYDMIQKGDRIAIALSGGKDSVTLAFVLNKLYGFRSDLEFFAITIDEGIAGYRPPTVEIARKVTEQLGMEHLVVSFEENFGMTLDEMVKRGDKKPCTYCGVFRKYLLNRTAREMGATKLATGHNLDDETQTILLNFLNADMERMARLVPQRVQEGLVVRIKPFRYVYEKEVVVYGFLHELPMDFDECPYSHFPVRAAVRDFLYDFENKYPGRKFSVMSSFEKLIPCLKEIYPQIDLNRCERCGEPTPRRICQACKLLEELRGVDEGHHHHHH | not soluble |
| MGHHHHHHSHMPVIQTESEHKPPVNGSYFAHVNPADGGCLLEKYSEKCHDFQCALLANLFASEGQPGKVIEVKAKRRTGPLNFVTCMRETLEKHYGNKPIGMGGTFIIQKGKVKSHIMPAEFSSCPLNSDEEVNKWLHFYEMKAPLVCLPVFVSRDPGFDLRLEHTHFFSRHGEGGHYHYDTTPDIVEYLGYFLPAEFLYRIGQPKETHSIGRD | not soluble |
